TEST_DESCRIPTION: Inhibition of Bat coronavirus HKU5 3CLpro
Parameters: species or system Pipistrellus bat coronavirus HKU5
PROPERTY: IC50 (nM)

* O=C(Nc1ccc(N(Cc2ccsc2)C(=O)Cn2nnc3ccccc32)cc1)c1cccs1 | 540

---

Tested on: Tylonycteris bat coronavirus HKU4
MEASUREMENT_SETUP: at 100 µM
Assign Yes to entries whose inhibition meets or exceeds 20%; assign No to the rest.

- CC(C)COC(=O)Nc1ccc(N(Cc2ccsc2)C(=O)Cn2nnc3ccccc32)cc1: Yes
- CC(C)(C)NC(=O)C(c1cccnc1)N(C(=O)c1n[nH]c2ccccc12)c1ccc(C(C)(C)C)cc1 (centres undefined): Yes
- CC(C)c1ccc(N(C(=O)Cc2cccc3ccccc23)C(C(=O)NC(C)(C)C)c2ccsc2)cc1 (centres undefined): No
- CC(C)c1ccc(N(C(=O)c2ccco2)C(C(=O)NC(C)(C)C)c2cccnc2)cc1 (centres undefined): Yes
- CC(C)(C)NC(=O)C(c1ccsc1)N(C(=O)Cn1nnc2ccccc21)c1ccc(NC(=O)c2cccs2)cc1 (centres undefined): Yes
- Cc1nccn1CC(=O)N(c1ccc(C(C)(C)C)cc1)C(C(=O)NC(C)(C)C)c1ccsc1 (centres undefined): No
- CC(C)(C)NC(=O)C(c1cccnc1)N(C(=O)C1CCCO1)c1ccc(C(C)(C)C)cc1 (centres undefined): No
- CC(C)(C)NC(=O)C(c1ccsc1)N(C(=O)Cc1c[nH]c2ccccc12)c1ccc(F)cc1 (centres undefined): Yes
- CC(C)(C)NC(=O)C(c1ccsc1)N(C(=O)c1ccc(C#N)cc1)c1ccc(C(C)(C)C)cc1 (centres undefined): No

Numbers sourced from ChEMBL document CHEMBL3603819.
